assayedTarget: UniProt:Q99705
assay: Inhibition of binding to MCH-R1
experimentalReadout: pKi
Notebook: values listed as pKi are -log10 of the concentration (mol/L).

Missing value: pKi, UniProt:Q99705, entry CCN(CC)Cc1ccc2c(c1)CC[C@H](N1CCN(CCc3ccc(F)cc3)CC1=O)C2 . Fill in?
7.82

###

# pIC50 measurements, system: Voltage-gated inwardly rectifying potassium channel KCNH2 (Homo sapiens, UniProt Q12809)
# Sequence (Q12809 whole entry): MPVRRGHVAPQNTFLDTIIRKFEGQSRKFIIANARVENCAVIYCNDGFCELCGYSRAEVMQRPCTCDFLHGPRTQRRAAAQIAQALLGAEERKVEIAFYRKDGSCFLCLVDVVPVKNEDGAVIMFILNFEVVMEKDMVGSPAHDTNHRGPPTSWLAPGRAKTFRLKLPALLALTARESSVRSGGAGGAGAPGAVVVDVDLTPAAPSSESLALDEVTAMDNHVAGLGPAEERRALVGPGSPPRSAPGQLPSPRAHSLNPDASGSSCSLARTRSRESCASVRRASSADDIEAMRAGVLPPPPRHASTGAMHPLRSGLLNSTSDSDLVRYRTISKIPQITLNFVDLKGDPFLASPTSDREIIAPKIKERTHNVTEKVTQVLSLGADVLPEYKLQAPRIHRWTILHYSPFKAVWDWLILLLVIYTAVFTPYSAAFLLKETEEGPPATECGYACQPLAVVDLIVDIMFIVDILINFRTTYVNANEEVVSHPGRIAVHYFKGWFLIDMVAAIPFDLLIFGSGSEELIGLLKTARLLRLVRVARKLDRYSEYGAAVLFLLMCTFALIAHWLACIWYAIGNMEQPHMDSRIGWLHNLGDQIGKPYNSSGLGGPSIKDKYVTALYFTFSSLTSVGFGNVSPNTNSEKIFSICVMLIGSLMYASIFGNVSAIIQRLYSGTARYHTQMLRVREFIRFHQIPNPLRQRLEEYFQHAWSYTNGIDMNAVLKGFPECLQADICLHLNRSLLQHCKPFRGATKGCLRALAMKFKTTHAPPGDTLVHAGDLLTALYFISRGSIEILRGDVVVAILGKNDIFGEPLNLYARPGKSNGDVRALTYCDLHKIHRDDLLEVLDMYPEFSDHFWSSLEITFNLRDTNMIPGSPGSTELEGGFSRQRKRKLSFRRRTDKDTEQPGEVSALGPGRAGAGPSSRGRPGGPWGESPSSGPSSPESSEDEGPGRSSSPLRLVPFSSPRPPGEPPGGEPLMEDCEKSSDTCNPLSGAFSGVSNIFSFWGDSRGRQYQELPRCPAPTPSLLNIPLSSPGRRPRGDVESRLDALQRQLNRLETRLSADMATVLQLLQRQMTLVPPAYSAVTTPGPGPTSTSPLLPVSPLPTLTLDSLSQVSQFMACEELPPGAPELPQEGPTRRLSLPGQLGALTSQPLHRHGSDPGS
Notebook: values listed as pIC50 are -log10 of the concentration (mol/L).

Below, each entry is followed by its recorded pIC50 result.
CC(=O)N1CCN(Cc2ccc3c(c2)CC[C@H](N2CCN(CCc4ccc(F)cc4)CC2=O)C3)CC1 : 4.60
CS(=O)(=O)N1CCN(Cc2ccc3c(c2)CC[C@H](N2CCN(CCc4ccc(F)cc4)CC2=O)C3)CC1 : 4.89

// returns reported pIC50 for input O=C1CN(CCc2ccc(F)cc2)CCN1[C@H]1CCc2cc(CN3CCOCC3)ccc2C1
4.96

Can you check O=C1CN(CCc2ccc(F)cc2)CCN1[C@H]1CCc2cc(CN3CCC(C(F)(F)F)CC3)ccc2C1 next?
5.70

Can you check CN(C)C(=O)C(CO)N(C)Cc1ccc2c(c1)CC[C@H](N1CCN(CCc3ccc(F)cc3)CC1=O)C2 (some centres not stated) next?
4.60

Can you check O=C1CN(CCc2ccc(F)cc2)CCN1[C@H]1CCc2cc(CN3CCS(=O)(=O)CC3)ccc2C1 next?
4.62

Can you check O=C1CN(CCc2ccc(F)cc2)CCN1[C@H]1CCc2cc(Cn3ccnc3)ccc2C1 next?
5.40

###

assay: Serum concentration in DIO mice 2 hr post 20mg/kg peroral dose
Type: ADME, organism-based
experimentalContext: mouse, po, read-out: Serum conc
experimentalReadout: concentration at 2 h (µM)
# output: bare number, implied unit µM

Below, each entry is followed by its recorded concentration at 2 h result.
CS(=O)(=O)N1CCN(Cc2ccc3c(c2)CC[C@H](N2CCN(CCc4ccc(F)cc4)CC2=O)C3)CC1 : 9
CC(=O)N1CCN(Cc2ccc3c(c2)CC[C@H](N2CCN(CCc4ccc(F)cc4)CC2=O)C3)CC1 : 4
O=C1CN(CCc2ccc(F)cc2)CCN1[C@H]1CCc2cc(CN3CCS(=O)(=O)CC3)ccc2C1 : 16

// returns reported concentration at 2 h for input CCN(CC)Cc1ccc2c(c1)CC[C@H](N1CCN(CCc3ccc(F)cc3)CC1=O)C2
2

###

assayedTarget: Melanin-concentrating hormone receptor 1 (Homo sapiens, UniProt Q99705)
Sequence (Q99705 whole entry): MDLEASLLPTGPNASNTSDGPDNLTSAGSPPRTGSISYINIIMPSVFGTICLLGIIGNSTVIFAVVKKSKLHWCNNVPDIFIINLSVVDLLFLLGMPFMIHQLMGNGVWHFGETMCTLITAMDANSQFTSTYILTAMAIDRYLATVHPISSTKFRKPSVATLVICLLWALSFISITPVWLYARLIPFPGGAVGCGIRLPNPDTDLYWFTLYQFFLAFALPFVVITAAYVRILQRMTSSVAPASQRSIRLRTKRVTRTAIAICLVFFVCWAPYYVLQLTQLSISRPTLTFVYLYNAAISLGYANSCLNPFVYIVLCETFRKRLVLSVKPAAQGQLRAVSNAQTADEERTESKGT
assay: Functional antagonism of MCH-R1 expressed in HEK293 cells
Format: cell-based
experimentalReadout: Ki

Below, each entry is followed by its recorded Ki result.
CS(=O)(=O)N1CCN(Cc2ccc3c(c2)CC[C@H](N2CCN(CCc4ccc(F)cc4)CC2=O)C3)CC1 : 30 µM
CCN(CC)Cc1ccc2c(c1)CC[C@H](N1CCN(CCc3cccc(C(F)(F)F)c3)CC1=O)C2 : 0.093 µM
CCN(CC)Cc1ccc2c(c1)CC[C@H](N1CCN(CCC3CCCS3)CC1=O)C2 (some centres undefined) : 0.047 µM
CCN(CC)Cc1ccc2c(c1)CC[C@H](N1CCN(CCC3CCCCC3)CC1=O)C2 : 0.032 µM
CC(=O)N1CCN(Cc2ccc3c(c2)CC[C@H](N2CCN(CCc4ccc(F)cc4)CC2=O)C3)CC1 : 16 µM

Missing value: Ki, Melanin-concentrating hormone receptor 1 (Homo sapiens, UniProt Q99705), entry O=C1CN(CCc2ccc(F)cc2)CCN1[C@H]1CCc2cc(CN3CCOCC3)ccc2C1 . Fill in?
15 µM

Can you check O=C1CN(CCc2ccc(F)cc2)CCN1[C@H]1CCc2cc(Cn3ccnc3)ccc2C1 next?
52 µM

Can you check CCN(CC)Cc1ccc2c(c1)CC[C@H](N1CCN(CCc3ccc(Cl)cc3)CC1=O)C2 next?
0.0033 µM

Can you check O=C1CN(CCc2ccc(F)cc2)CCN1[C@H]1CCc2cc(CN3CCC(C(F)(F)F)CC3)ccc2C1 next?
8.7 µM
